- measurement.target: T1, TRBP-ΔC (UniProt Q15633-2 9-215)
- T1 sequence: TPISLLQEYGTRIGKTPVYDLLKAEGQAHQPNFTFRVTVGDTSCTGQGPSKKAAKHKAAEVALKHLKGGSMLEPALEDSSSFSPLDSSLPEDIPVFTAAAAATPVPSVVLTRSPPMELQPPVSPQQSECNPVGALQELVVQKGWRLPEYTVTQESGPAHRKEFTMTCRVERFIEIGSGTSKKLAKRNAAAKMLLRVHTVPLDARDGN
- experiment.summary: EMSA; apparent Kd; nH 1.9; 50 mM sodium cacodylate pH 7.0, 50 mM potassium glutamate, 5% glycerol; EMSA 0.5 pM RNA, 30 min at room temperature, gel 0.25X TBE at 10 C; CD at 10 C with 5-15 uM RNA
- condition.label: protein: recombinant; label: 5'-32P top strand (EMSA); blunt
parameter.measured: Kd
Please answer in the form of a number followed by its unit of measurement.

Input line: For the binder ds12 (dsRNA) RNA 1: GUCAGCAGUGCC RNA 2: GGCACUGCUGAC , what Kd is on record?
Output line: 2000 nM
